// IC50 collected for UniProt P00734
Param answer (str): number followed by unit.

// known answers, use as guide
CCOC(=O)c1c(COc2cc3c(C(=O)OCC)c(COc4cc5c(C(=O)OCC)c(C)oc5cc4OC)oc3cc2OC)[nH]c2ccc(OS(=O)(=O)[O-])cc12.[Na+]	304 µM
CCOC(=O)c1c(COc2cc3c(C(=O)OCC)c(Cc4ccccc4)oc3cc2OC)[nH]c2ccc(OS(=O)(=O)[O-])cc12.[Na+]	327 µM

// sample `COc1cc2occ(C(=O)OC(C)(C)C)c2cc1OCc1nc2ccc(OS(=O)(=O)O)cc2s1` , its IC50 was 146 µM

Notebook: `CCOC(=O)c1c(C)[nH]c2ccc(OCc3c(C(=O)OCC)c4cc(OS(=O)(=O)[O-])ccc4n3C(=O)OC(C)(C)C)cc12.[Na+]` , IC50 read as 425 µM

Short answer for `Cc1nc2ccc(OCc3nc4ccc(OS(=O)(=O)[O-])cc4s3)cc2s1.[Na+]` : IC50 was 327 µM

* * *

target: Coagulation factor X (Homo sapiens, UniProt P00742); assay: Inhibition of human factor 10a by spectrophotometric assay; conditions: read-out: IC50
Sequence (P00742 41-179 limits assumed): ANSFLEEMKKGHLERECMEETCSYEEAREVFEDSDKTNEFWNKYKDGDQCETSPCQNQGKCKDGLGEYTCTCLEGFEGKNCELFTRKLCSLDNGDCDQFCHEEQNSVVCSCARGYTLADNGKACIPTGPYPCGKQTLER
Sequence (P00742 235-488 limits assumed): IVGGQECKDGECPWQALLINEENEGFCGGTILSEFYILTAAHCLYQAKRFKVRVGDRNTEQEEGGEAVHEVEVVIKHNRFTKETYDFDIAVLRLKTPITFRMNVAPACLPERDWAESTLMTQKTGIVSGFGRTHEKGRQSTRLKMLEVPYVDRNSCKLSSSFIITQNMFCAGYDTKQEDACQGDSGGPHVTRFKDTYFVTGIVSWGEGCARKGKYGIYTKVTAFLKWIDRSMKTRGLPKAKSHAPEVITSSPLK
QUANTITY_MEASURED: pIC50
As a rule, pIC50 stands for the negative log10 of the concentration, concentration in M.

Solved cases (3 shown):
CCOC(=O)c1c(COc2cc3c(C(=O)OCC)c(Cc4ccccc4)oc3cc2OC)[nH]c2ccc(OS(=O)(=O)[O-])cc12.[Na+]	3.71
CCOC(=O)c1c(COc2cc3c(C(=O)OCC)c(COc4cc5c(C(=O)OCC)c(C)oc5cc4OC)oc3cc2OC)[nH]c2ccc(OS(=O)(=O)[O-])cc12.[Na+]	3.46
COc1cc2occ(C(=O)OC(C)(C)C)c2cc1OCc1nc2ccc(OS(=O)(=O)O)cc2s1	3.45

# context switch: different compound, same pIC50
Field pIC50 (entry `CCOC(=O)c1c(C)[nH]c2ccc(OCc3c(C(=O)OCC)c4cc(OS(=O)(=O)[O-])ccc4n3C(=O)OC(C)(C)C)cc12.[Na+]` ) reads 3.64

* * *

Here the recorded pIC50 is given for each entry.
target: Coagulation factor XI (Homo sapiens, UniProt P03951); test: Inhibition of human factor 11a by spectrophotometric assay; conditions: read-out: IC50
Sequence (P03951 19-387 limits assumed): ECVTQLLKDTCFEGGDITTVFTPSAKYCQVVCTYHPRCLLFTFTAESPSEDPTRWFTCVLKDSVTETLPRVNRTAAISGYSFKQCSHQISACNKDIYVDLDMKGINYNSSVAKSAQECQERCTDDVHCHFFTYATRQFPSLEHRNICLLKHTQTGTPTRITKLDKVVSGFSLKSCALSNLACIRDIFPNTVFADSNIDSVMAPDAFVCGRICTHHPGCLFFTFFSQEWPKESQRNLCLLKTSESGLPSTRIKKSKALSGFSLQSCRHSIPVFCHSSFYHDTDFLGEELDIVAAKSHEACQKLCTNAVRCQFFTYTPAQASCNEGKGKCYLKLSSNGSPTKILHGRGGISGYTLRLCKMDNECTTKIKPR
Sequence (P03951 388-625 limits assumed): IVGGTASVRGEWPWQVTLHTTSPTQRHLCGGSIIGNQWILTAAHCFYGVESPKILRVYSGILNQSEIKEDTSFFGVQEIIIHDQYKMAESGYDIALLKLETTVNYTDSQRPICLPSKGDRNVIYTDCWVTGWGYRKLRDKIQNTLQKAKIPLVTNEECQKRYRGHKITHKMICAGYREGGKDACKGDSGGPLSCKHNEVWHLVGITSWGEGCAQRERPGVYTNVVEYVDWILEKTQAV
As a rule, pIC50 stands for the negative log10 of the concentration, concentration in M.

CCOC(=O)c1c(COc2cc3c(C(=O)OCC)c(Cc4ccccc4)oc3cc2OC)[nH]c2ccc(OS(=O)(=O)[O-])cc12.[Na+]	3.93

Lookup result for `COc1cc2occ(C(=O)OC(C)(C)C)c2cc1OCc1nc2ccc(OS(=O)(=O)O)cc2s1` ; measured pIC50: 3.91

Input `CCOC(=O)c1c(COc2cc3c(C(=O)OCC)c(COc4cc5c(C(=O)OCC)c(C)oc5cc4OC)oc3cc2OC)[nH]c2ccc(OS(=O)(=O)[O-])cc12.[Na+]` . Output pIC50: 4.06

Briefly, pIC50 measured for `CCOC(=O)c1c(C)[nH]c2ccc(OCc3c(C(=O)OCC)c4cc(OS(=O)(=O)[O-])ccc4n3C(=O)OC(C)(C)C)cc12.[Na+]` : 3.66
